System: RS4 cells
Assay: Cell viability assay, MTS, 72 h, RS4;11
Format: cell-based
Conditions: Homo sapiens
pIC50: −log10 of the molar value.
Catalogue of pIC50 values
reported property: pIC50

CC1(CNC(=O)CCCCCNc2cccc3c2C(=O)N(C2CCC(=O)NC2=O)C3=O)CCC(c2ccc(Cl)cc2)=C(CN2CCN(c3ccc(C(=O)NS(=O)(=O)c4ccc(N[C@H](CCN5CCOCC5)CSc5ccccc5)c(S(=O)(=O)C(F)(F)F)c4)cc3)CC2)C1 (stereo partly drawn) [Compound 62] ... 7.48
Cc1ncsc1-c1ccc([C@H](C)NC(=O)[C@@H]2C[C@@H](O)CN2C(=O)[C@@H](NC(=O)COCCOCCOCCOCC(=O)NCC2(C)CCC(c3ccc(Cl)cc3)=C(CN3CCN(c4ccc(C(=O)NS(=O)(=O)c5ccc(N[C@H](CCN6CCOCC6)CSc6ccccc6)c(S(=O)(=O)C(F)(F)F)c5)cc4)CC3)C2)C(C)(C)C)cc1 (stereo partly drawn) [Compound 59] ... 6.39
Cc1ncsc1-c1ccc([C@H](C)NC(=O)[C@@H]2C[C@@H](O)CN2C(=O)[C@@H](NC(=O)COCCOCCOCCOCCOC(=O)N2CCC(c3ccc(Cl)cc3)=C(CN3CCN(c4ccc(C(=O)NS(=O)(=O)c5ccc(N[C@H](CCN6CCOCC6)CSc6ccccc6)c(S(=O)(=O)C(F)(F)F)c5)cc4)CC3)C2)C(C)(C)C)cc1 [Compound 36] ... 5.76
Cc1ncsc1-c1ccc([C@H](C)NC(=O)[C@@H]2C[C@@H](O)CN2C(=O)[C@@H](NC(=O)CCCCCCCCCC(=O)NCC2(C)CCC(c3ccc(Cl)cc3)=C(CN3CCN(c4ccc(C(=O)NS(=O)(=O)c5ccc(N[C@H](CCN6CCOCC6)CSc6ccccc6)c(S(=O)(=O)C(F)(F)F)c5)cc4)CC3)C2)C(C)(C)C)cc1 (stereo partly drawn) [Compound 54] ... 7.71
Cc1ncsc1-c1ccc([C@H](C)NC(=O)[C@@H]2C[C@@H](O)CN2C(=O)[C@@H](NC(=O)CCCCCCC(=O)NCC2(C)CCC(c3ccc(Cl)cc3)=C(CN3CCN(c4ccc(C(=O)NS(=O)(=O)c5ccc(N[C@H](CCN6CCOCC6)CSc6ccccc6)c(S(=O)(=O)C(F)(F)F)c5)cc4)CC3)C2)C(C)(C)C)cc1 (stereo partly drawn) [Compound 51] ... 7.33
Cc1ncsc1-c1ccc([C@H](C)NC(=O)[C@@H]2C[C@@H](O)CN2C(=O)[C@@H](NC(=O)COCCOCCOCCOCCOCC(=O)NCC2(C)CCC(c3ccc(Cl)cc3)=C(CN3CCN(c4ccc(C(=O)NS(=O)(=O)c5ccc(N[C@H](CCN6CCOCC6)CSc6ccccc6)c(S(=O)(=O)C(F)(F)F)c5)cc4)CC3)C2)C(C)(C)C)cc1 (stereo partly drawn) [Compound 60] ... 6.12

* * *

System: RS4;11 cells
Assay: Cell viability assay, MTS, 48 h, RS4;11
Assay type: cell-based
Settings: Homo sapiens, RS4-11, 48 h, 48 hours, read-out: IC50 (48 hours) RS4;11
pIC50: −log10 of the molar value.
reported property: pIC50

Cc1ncsc1-c1ccc([C@H](C)NC(=O)[C@@H]2C[C@@H](O)CN2C(=O)[C@@H](NC(=O)CCCCCCC(=O)N2CC3(CCN(CC4(C)CCC(c5ccc(Cl)cc5)=C(CN5CCN(c6ccc(C(=O)NS(=O)(=O)c7ccc(N[C@H](CCN8CCOCC8)CSc8ccccc8)c(S(=O)(=O)C(F)(F)F)c7)cc6)CC5)C4)CC3)C2)C(C)(C)C)cc1 (stereo partly shown) [degrader #32] ... > 7.30
CC1(CNC(=O)COCCOCCNc2cccc3c2C(=O)N(C2CCC(=O)NC2=O)C3=O)CCC(c2ccc(Cl)cc2)=C(CN2CCN(c3ccc(C(=O)NS(=O)(=O)c4ccc(N[C@H](CCN5CCOCC5)CSc5ccccc5)c(S(=O)(=O)C(F)(F)F)c4)cc3)CC2)C1 (stereo partly shown) [compound 77] ... > 7.30
Cc1ncsc1-c1ccc([C@H](C)NC(=O)[C@@H]2C[C@@H](O)CN2C(=O)[C@@H](NC(=O)CCCN2CCN(CC3(C)CCC(c4ccc(Cl)cc4)=C(CN4CCN(c5ccc(C(=O)NS(=O)(=O)c6ccc(N[C@H](CCN7CCOCC7)CSc7ccccc7)c(S(=O)(=O)C(F)(F)F)c6)cc5)CC4)C3)CC2)C(C)(C)C)cc1 (stereo partly shown) [compound 68] ... 6.30 to 6.82
CC1(CNC(=O)CCCCCCNc2cccc3c2C(=O)N(C2CCC(=O)NC2=O)C3=O)CCC(c2ccc(Cl)cc2)=C(CN2CCN(c3ccc(C(=O)NS(=O)(=O)c4ccc(N[C@H](CCN5CCOCC5)CSc5ccccc5)c(S(=O)(=O)C(F)(F)F)c4)cc3)CC2)C1 (stereo partly shown) [compound 72] ... > 7.30
